Source: ChEMBL document CHEMBL5625273

Listed next: entries and their corresponding IC50.
- Test system: PC-3
- method_description: Antiproliferative activity against human PC-3 cells by MTT assay
- Type: functional, cell-based
quantity_measured: IC50 (µM)

- CC(=O)NC1=CC(=O)O/C1=C/C=O: 21.7
- NC1=CC(=O)O/C1=C/C=O: 9.79
- CC(=O)NC1=CC(=O)O/C1=C/C(OC(C)=O)OC(C)=O: 42.6

----------
- Test system: MCF7
- method_description: Antiproliferative activity against human MCF7 cells by MTT assay
- Format: functional, cell-based
quantity_measured: IC50 (µM)

* NC1=CC(=O)O/C1=C/C=O | 7.87
* CC(=O)NC1=CC(=O)O/C1=C/C(OC(C)=O)OC(C)=O | 22.4
* CC(=O)NC1=CC(=O)O/C1=C/C=O | 38.8
